Target Entity: human acetyl-CoA carboxylase 2 (ACC2) (Homo sapiens, UniProt O00763)
Construct: The cDNA encoding amino acids 144 to 2458 of human acetyl-CoA carboxylase 2; made in house; host or cells: Sf9 insect cells (baculovirus, pFastBac1)
Sequence (O00763 144-2458): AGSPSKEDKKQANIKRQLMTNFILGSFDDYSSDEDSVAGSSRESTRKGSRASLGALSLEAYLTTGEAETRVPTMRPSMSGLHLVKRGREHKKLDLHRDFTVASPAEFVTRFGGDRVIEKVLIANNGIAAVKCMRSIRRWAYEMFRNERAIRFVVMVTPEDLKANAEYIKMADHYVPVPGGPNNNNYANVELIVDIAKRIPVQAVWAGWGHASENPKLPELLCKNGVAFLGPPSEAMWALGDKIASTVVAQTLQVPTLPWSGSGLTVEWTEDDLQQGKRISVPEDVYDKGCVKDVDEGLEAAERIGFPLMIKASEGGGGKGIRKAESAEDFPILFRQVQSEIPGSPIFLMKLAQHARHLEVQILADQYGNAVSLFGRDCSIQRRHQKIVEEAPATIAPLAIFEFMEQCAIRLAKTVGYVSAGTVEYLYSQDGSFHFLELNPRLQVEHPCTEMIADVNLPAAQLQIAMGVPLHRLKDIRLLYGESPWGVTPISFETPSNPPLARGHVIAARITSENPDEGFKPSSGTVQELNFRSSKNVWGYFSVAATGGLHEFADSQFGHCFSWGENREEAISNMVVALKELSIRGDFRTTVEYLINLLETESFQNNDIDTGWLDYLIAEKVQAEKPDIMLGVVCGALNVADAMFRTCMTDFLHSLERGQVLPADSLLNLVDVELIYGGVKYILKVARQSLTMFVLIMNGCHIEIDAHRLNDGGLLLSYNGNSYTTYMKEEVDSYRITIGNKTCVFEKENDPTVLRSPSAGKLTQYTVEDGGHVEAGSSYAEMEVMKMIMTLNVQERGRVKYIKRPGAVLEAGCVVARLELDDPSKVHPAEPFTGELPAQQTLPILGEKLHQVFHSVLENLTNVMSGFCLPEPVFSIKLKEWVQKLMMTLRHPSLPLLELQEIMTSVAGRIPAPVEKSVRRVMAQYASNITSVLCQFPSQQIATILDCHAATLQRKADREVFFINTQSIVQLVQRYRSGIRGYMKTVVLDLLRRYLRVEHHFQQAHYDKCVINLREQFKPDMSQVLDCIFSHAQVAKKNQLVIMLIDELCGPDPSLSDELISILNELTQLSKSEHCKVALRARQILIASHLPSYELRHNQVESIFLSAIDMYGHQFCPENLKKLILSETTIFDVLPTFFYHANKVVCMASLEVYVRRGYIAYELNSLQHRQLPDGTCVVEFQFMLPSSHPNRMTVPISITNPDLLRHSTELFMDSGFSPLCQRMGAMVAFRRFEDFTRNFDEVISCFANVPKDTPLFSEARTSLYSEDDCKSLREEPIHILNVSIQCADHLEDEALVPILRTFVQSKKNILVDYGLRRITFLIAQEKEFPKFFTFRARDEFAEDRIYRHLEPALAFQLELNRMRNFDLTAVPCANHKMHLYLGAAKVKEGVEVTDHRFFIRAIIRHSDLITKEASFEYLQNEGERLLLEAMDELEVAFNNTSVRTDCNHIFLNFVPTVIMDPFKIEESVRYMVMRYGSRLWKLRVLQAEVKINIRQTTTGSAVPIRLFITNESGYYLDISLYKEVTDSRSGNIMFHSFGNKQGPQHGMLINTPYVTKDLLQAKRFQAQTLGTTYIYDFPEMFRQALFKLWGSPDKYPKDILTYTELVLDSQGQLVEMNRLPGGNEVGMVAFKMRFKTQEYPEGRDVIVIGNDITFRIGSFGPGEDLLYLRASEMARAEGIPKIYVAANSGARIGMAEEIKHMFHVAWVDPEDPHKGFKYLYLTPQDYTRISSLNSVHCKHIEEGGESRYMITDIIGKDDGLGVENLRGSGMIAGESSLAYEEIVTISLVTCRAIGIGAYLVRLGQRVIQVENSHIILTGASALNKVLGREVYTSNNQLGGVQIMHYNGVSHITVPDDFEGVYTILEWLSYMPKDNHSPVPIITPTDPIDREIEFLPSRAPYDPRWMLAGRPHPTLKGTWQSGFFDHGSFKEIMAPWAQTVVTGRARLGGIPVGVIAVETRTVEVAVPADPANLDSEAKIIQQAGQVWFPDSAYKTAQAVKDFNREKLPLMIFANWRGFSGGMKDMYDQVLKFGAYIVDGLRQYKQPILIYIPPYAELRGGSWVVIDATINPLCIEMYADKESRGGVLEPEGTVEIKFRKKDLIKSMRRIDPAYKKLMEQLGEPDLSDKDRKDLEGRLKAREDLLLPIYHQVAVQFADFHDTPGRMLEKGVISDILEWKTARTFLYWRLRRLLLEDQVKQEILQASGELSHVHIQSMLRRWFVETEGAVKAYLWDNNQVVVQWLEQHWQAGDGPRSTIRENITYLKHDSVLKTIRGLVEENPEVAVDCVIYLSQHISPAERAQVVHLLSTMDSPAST
Assay Comment: Acetyl-CoA carboxylase enzyme assay (malonyl-CoA formation by LC/MS/MS)
Type: biochemical
Experimental Setup: recombinant human ACC2 (aa 144-2458); read-out: IC50 ACC2
From the text: The cDNA encoding amino acids 144 to 2458 of human acetyl-CoA carboxylase 2 (ACC2, GenBank Accession #NM_001093) was cloned into the SalI and NotI sites of pFastBac1 (Invitrogen; Carlsbad, Calif.). The resulting plasmid was used to generate a recombinant ACC2 baculovirus that was amplified and titered according to the protocols in the Bac-to-Bac baculovirus expression system manual (Invitrogen). […]
Each record is given true if its reported IC50 is strictly below 0.1 µM. Records at or above 0.1 µM are given false.

Compound	Target Entity	Label Class
CC(C)(C)OC(=O)N1CCN(C(=O)[C@H]2CC[C@H](NS(=O)(=O)c3cnc4ccccc4c3)CC2)C(c2ccccc2)C1 (stereo partly shown)	human acetyl-CoA carboxylase 2 (ACC2) (Homo sapiens, UniProt O00763)	false
CCOc1ccc2cc(S(=O)(=O)N[C@H]3CC[C@H](C(=O)N[C@H](COC(=O)[C@@H](N)C(C)C)c4ccccc4)CC3)ccc2n1	human acetyl-CoA carboxylase 2 (ACC2) (Homo sapiens, UniProt O00763)	false
C[C@H]1COCCN1C(=O)[C@H]1CC[C@H](NS(=O)(=O)c2ccc3c(C#N)c(C4CC4)n(C)c3c2)CC1 [Example 414]	human acetyl-CoA carboxylase 2 (ACC2) (Homo sapiens, UniProt O00763)	true
Cn1c(-c2ccc(CO)cc2)cc2ccc(S(=O)(=O)N[C@H]3CC[C@H](C(=O)N4CCNC(=O)C4)CC3)cc21	human acetyl-CoA carboxylase 2 (ACC2) (Homo sapiens, UniProt O00763)	false
C[C@@H](NC(=O)[C@H]1CC[C@H](NS(=O)(=O)c2cnc3c(c2)N(C)CCN3C)CC1)c1ccc(F)cc1	human acetyl-CoA carboxylase 2 (ACC2) (Homo sapiens, UniProt O00763)	false
Cc1ccccc1-c1cc2ccc(S(=O)(=O)N[C@H]3CC[C@H](C(=O)N4CCC[C@H]4C)CC3)cc2[nH]1	human acetyl-CoA carboxylase 2 (ACC2) (Homo sapiens, UniProt O00763)	false
O=C(NC1CCCCC1)[C@H]1CC[C@H](NS(=O)(=O)c2ccc3[nH]c(-c4ccccc4)nc3c2)CC1	human acetyl-CoA carboxylase 2 (ACC2) (Homo sapiens, UniProt O00763)	false
CCOC(=O)CCc1cn(C)c2ccc(S(=O)(=O)N[C@H]3CC[C@H](C(=O)N[C@H](C)c4ccc(F)cc4)CC3)cc12	human acetyl-CoA carboxylase 2 (ACC2) (Homo sapiens, UniProt O00763)	true

# evaluate next
Request: Consider the compound C[C@@H](NC(=O)[C@H]1CC[C@H](NS(=O)(=O)c2cnc3c(c2)NCCN3C)CC1)c1ccc(F)cc1 . Is its IC50 strictly less than 0.1 µM?
Result: true

Reference source: patent US8697739B2
